TARGET: T1, TDP-43, full length, soluble oligomers (human, UniProt Q13148 1-414)
T1 construct: TDP-43, human, full length; oligomers of unstated size; also called oligomeric TDP-43; TDP-43 oligomers; source: E coli, purified from insoluble inclusion bodies, solubilized in 6 M guanidine, oligomers made by 1:100 dilution
T1 sequence (Q13148 whole entry): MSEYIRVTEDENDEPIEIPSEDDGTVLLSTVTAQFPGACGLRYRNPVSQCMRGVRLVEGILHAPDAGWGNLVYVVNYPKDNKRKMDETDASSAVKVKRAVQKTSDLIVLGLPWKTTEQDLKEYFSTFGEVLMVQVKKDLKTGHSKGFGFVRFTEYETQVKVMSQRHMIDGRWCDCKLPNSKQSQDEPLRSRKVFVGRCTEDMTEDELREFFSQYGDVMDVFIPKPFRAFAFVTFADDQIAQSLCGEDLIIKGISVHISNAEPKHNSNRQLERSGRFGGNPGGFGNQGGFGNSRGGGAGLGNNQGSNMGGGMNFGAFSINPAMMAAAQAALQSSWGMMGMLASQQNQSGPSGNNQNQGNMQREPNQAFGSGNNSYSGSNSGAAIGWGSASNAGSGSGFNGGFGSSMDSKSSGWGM
METHOD DESCRIPTION: BLI; biotinylated TREM2 WT or variant immobilised on SA biosensors; TDP-43 oligomers 0.625–10 µM; PBS with 0.1% BSA and 0.005% Tween-20; biphasic curves, only qualitatively evaluated
MEASUREMENT CONDITIONS: both partners purified

[
  {
    "BINDER": "TREM2 (19–134) R62H, biotinylated (domain or fragment, human, UniProt Q9NZC2 19-134, looked up, biotin on the C-terminal BirA biotinylation sequence (enzymatic, BirA), AD risk variant that occurs in nature; source: Expi293F cells, purified, enzymatically biotinylated using BirA) HNTTVFQGVAGQSLQVSCPYDSMKHWGRRKAWCRQLGEKGPCQHVVSTHNLWLLSFLRRWNGSTAITDDTLGGTLTITLRNLQPHDAGLYQCQSLHGSEADTLRKVLVEVLADPLD",
    "binding result": "binds"
  },
  {
    "BINDER": "TREM2 (19–134) D87N, biotinylated (domain or fragment, human, UniProt Q9NZC2 19-134, looked up, biotin on the C-terminal BirA biotinylation sequence (enzymatic, BirA), AD risk variant that occurs in nature; source: Expi293F cells, purified, enzymatically biotinylated using BirA) HNTTVFQGVAGQSLQVSCPYDSMKHWGRRKAWCRQLGEKGPCQRVVSTHNLWLLSFLRRWNGSTAITDNTLGGTLTITLRNLQPHDAGLYQCQSLHGSEADTLRKVLVEVLADPLD",
    "binding result": "binds"
  },
  {
    "BINDER": "TREM2 (19–134) WT, biotinylated (domain or fragment, human, UniProt Q9NZC2 19-134, looked up, biotin on the C-terminal BirA biotinylation sequence (enzymatic, BirA), glycosylated (mammalian cells); also called TREM2 WT; source: Expi293F cells, purified, enzymatically biotinylated using BirA) HNTTVFQGVAGQSLQVSCPYDSMKHWGRRKAWCRQLGEKGPCQRVVSTHNLWLLSFLRRWNGSTAITDDTLGGTLTITLRNLQPHDAGLYQCQSLHGSEADTLRKVLVEVLADPLD",
    "binding result": "binds"
  },
  {
    "BINDER": "TREM2 (19–134) R47H, biotinylated (domain or fragment, human, UniProt Q9NZC2 19-134, looked up, biotin on the C-terminal BirA biotinylation sequence (enzymatic, BirA), AD risk variant that occurs in nature; source: Expi293F cells, purified, enzymatically biotinylated using BirA) HNTTVFQGVAGQSLQVSCPYDSMKHWGRHKAWCRQLGEKGPCQRVVSTHNLWLLSFLRRWNGSTAITDDTLGGTLTITLRNLQPHDAGLYQCQSLHGSEADTLRKVLVEVLADPLD",
    "binding result": "binds"
  }
]
